Origin of the recorded values: patent US9199941B2

# Tested on: Puccinia recondita
# Procedure Summary: In vivo preventive test on Puccinia recondita (brown rust on wheat)
# Conditions Used: 500 ppm, preventive spray, wheat plants, grading 12 days after contamination
In this section we review reported Eff. % values for a set of compounds.

{"Compound": "CCON=C1CC(C)c2c(NC(=O)c3cn(C)nc3C(F)F)cccc21 (centres unmarked)", "Measured On": "Puccinia recondita", "Eff. % / %": 81}
{"Compound": "CC(C)C1CCc2c(NC(=O)c3cn(C)nc3C(F)F)cccc21 (centres unmarked)", "Measured On": "Puccinia recondita", "Eff. % / %": 98}
{"Compound": "Cc1nn(C)c(C)c1C(=O)Nc1cccc2c1C(C)CC2CC(C)C (centres unmarked)", "Measured On": "Puccinia recondita", "Eff. % / %": 98}
{"Compound": "CC1CC(CC(C)(C)C)c2cccc(NC(=O)c3cn(C)nc3C(F)F)c21 (centres unmarked)", "Measured On": "Puccinia recondita", "Eff. % / %": 100}
{"Compound": "CCCON=C1CC(C)c2c(NC(=O)c3cn(C)nc3C(F)F)cccc21 (centres unmarked)", "Measured On": "Puccinia recondita", "Eff. % / %": 81}
